Test system: CEM cells HIV-1 protection, formazan growth assay
Test: NCI AIDS Antiviral Assay
Conditions: measured here: growth of uninfected CEM cells
Description: The ability of compounds to protect human CEM cells from HIV-1 infection is measured as a screen for new compounds capable of inhibiting the HIV virus. Five concentrations of drug were tested on uninfected and infected cells and cell growth was measured using a soluble formazan assay. […] Compounds that provided at least 50% protection were retested. Compounds that provided at least 50% protection on retest were listed as moderately active. […]
MEASUREMENT KIND: IC50

Fill in: IC50 of Cc1ccc2c(c1)P1c3cc(C)ccc3SP1S2 (stereo not given) is ___ > 12.3 µM

Data request, read-out IC50, for `COC(=O)N/N=C(/CCC(=O)Nc1ccc(C)c(C)c1)CC(=O)C(C)(C)C` > 661 µM

Look at this molecule and give its reported IC50. `O=C(O)c1cc2cccc(S(=O)(=O)O)c2cc1O` > 200 µM

Entry Cc1ccc(S(=O)(=O)CN2C(=O)C(c3ccccc3)(c3ccccc3)C23OC(c2ccc(Cl)cc2)=CC3=O)cc1 (stereo not given) has what IC50? > 200 µM

Which measured IC50 value corresponds to `O=C(CSc1nnc(Cc2ccccc2)o1)Nc1ccc(Cl)cc1` ? 72.4 µM

----------
System: CEM cells HIV-1 protection, formazan growth assay
Assay: NCI AIDS Antiviral Assay;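 active means compounds giving half or more protection of infected cells from virus-caused growth loss, again on retest; inactive means the rest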
Give one outcome, nothing more. List: y = active, n = inactive

// param item: `CC(=C/c1ccccc1)/C=C1/NC(=S)N(CN2CCCCCC2)C1=O` ; yields the recorded call n

Look up the recorded call for `O=C(O)CCCCCCC[n+]1ccccc1` in this test. n

So what was the verdict on `Cc1cn([C@H]2C[C@H](N=[N+]=[N-])[C@@H](COC(=O)CCC(=O)OC3CN(Cc4ccccc4)C(=O)N(Cc4ccccc4)C3)O2)c(=O)[nH]c1=O` in this test? y

Outcome? `CCOC(=O)C(=CNC(=S)c1cccnc1)C(=O)OCC` n

Hello, I am checking results. What call was entered for `Cc1cc(C)c(-c2no/c(=N\S(=O)(=O)c3ccc(Cl)cc3)o2)c(C)c1` ? n

# lookup: test call for `CC(=O)Nc1n[n+]([O-])c2cc(C)ccc2[n+]1[O-]` n

Field: outcome | Entry: CC(C)CCCC(C)[C@H]1CC[C@H]2[C@@H]3CC[C@H]4C[C@@H](CCC=C(c5cc(Cl)c(O)c(C(=O)OC(C)(C)C)c5)c5cc(Cl)c(O)c(C(=O)OC(C)(C)C)c5)CC[C@]4(C)[C@H]3CC[C@]12C (stereo not given in full) n

For `CC(C)(CO)CNc1nc(N)nc(Cl)c1N` , what call appears in the results of this test? n

Check the results log: what was the call for `N#Cc1c(N)[nH]c(S)c1C#N` ? y

Name the outcome recorded for `Oc1c([Si](c2ccccc2)(c2ccccc2)c2ccccc2)cc2ccccc2c1-c1c(O)c([Si](c2ccccc2)(c2ccccc2)c2ccccc2)cc2ccccc12` in the assay. n

Could you please tell me the result logged for C[C@H]1CCCCC[C@@H]2CC(=O)CC2C(=O)CCC(=O)O1 (stereo not given in full) in this assay? n

Tell me the recorded outcome of this test for `C=CCn1c(-c2ccc(Cl)cc2)csc1=Nc1ccccc1OC` . n

Could you check what this test reported for O=C(O)C(CO)NC(=O)n1c2ccccc2c2ccccc21 (stereo not given) ? n

I would be grateful if you could indicate the recorded call for `CNCC(=O)c1ccc(O)c(O)c1` . n

Given `S=c1nc[nH]c2c1ccc1[nH]cnc12` , state the outcome it received in this test. n

What did the test return for `CN(C)c1ccc(/C=C(\NC(=O)c2ccccc2)c2nn(C)c(=O)o2)cc1` ? n

Per the assay record, what outcome was assigned to `C#CCN1CCN(C(=S)N/N=C(\C)c2ccccn2)CC1` ? n

For this compound, state the assay outcome: COc1cc2c(c([N+](=O)[O-])c1)NC(=O)C(c1ccccc1)S2 (stereo not given) n

Recorded test call requested for `Cc1ccc(NC(=O)CCC(CC(=O)C(C)(C)C)=NNC(=O)C(=O)NN)cc1C` n

Which outcome was entered for the compound Cc1ccc(C2(O)CSC(=NC34CC5CC(CC(C5)C3)C4)N2C(P(=O)(O)O)P(=O)(O)O)cc1 (stereo not given) in this test? n

----------
System: CEM cells HIV-1 protection, formazan growth assay
Test: NCI AIDS Antiviral Assay
Conditions: measured here: growth of uninfected CEM cells
So I've got a bunch of molecules here, and I need their pIC50 values.
When answering, recall that pIC50 equals minus log10 of the concentration in mol/L, and write that number alone.

Item under review: `CC1(C)C/C(=N/O)c2c(nc3ccc4ccccc4c3c2-c2ccc(Cl)cc2)C1` . Reported pIC50? 4.43

Please look up its pIC50: `O=c1[nH]cc(N=Nc2ccc(S(=O)(=O)Nc3nccs3)cc2)cc1O` 3.77

// lookup pIC50 for `CCCN(CCC)C(=S)N/N=C/c1ccccn1` 7.90

So what's the measured pIC50 for this one? `O=C(CSc1cc(-c2ccc(Cl)cc2)s[s+]1)c1ccccc1` 4.28

Given the molecule `C=C(Cc1ccc2c(c1)OCO2)C(=C)Cc1ccc(O)cc1O` , what is its reported pIC50? 4.26

Return reported pIC50; argument: `CCN1C(Cl)=NS(=O)(=O)c2ccccc21` 4.04

Any idea what pIC50 was measured for `COC(=O)[C@@]1(C)C(=O)CC[C@@H]1C=O` ? 4.30

----------
System: CEM cells HIV-1 protection, formazan growth assay
Experiment: NCI AIDS Antiviral Assay
Conditions: measured here: growth of uninfected CEM cells
pIC50: −log10 of the molar value.
Each entry belongs to exactly one class, chosen by where its pIC50 falls: lo: < 4; med: ≥ 4 and < 5; hi: ≥ 5

Just checking, what class would you give O=C(CC(=O)Nc1ccccc1Cl)NNC(Sc1ccccc1)c1cc(N=Nc2ccc(Br)cc2)ccc1O (stereo unspecified) here? hi

Which pIC50 band matches `Nc1nc(=S)[nH]c2n[nH]nc12` ? lo

# bin lookup: classify `C=C(c1ccccc1)[P+](c1ccccc1)(c1ccccc1)c1ccccc1` by its pIC50 hi

Categorize the following entry: `CCc1n[nH]c(=O)n1CCCCCCCCCCCCn1c(CC)n[nH]c1=O` med

Bin this entry: `NC(=O)CNC(=O)c1ccccc1SC(=O)OCCCCCl` lo

Quick check: band for `CCOP(=O)(OCC)/C(=C/n1c(=S)[nH]c2ccccc21)C(=O)OC` lo

Kindly state the category for this molecule: `CCCCCCCCCCCCOC(=N)N1CCOCC1` hi

Input O=C1OC(CN2CCOCC2)CN1/N=C/c1ccc([N+](=O)[O-])o1 (stereo unspecified) ; output its category med

Form field 'band' for `CCc1cc(=O)oc2c3c(cc(OC)c12)O[C@H](C)[C@@H](C)C3=O` med

Band for the recorded pIC50 of CC1C2C1C1C3NN=CC3C2n2c(=O)n(-c3ccccc3)c(=O)n21 (stereo unspecified) ? lo

Hi, small favor: classify CCOC(=O)CC1(O)C(=O)N(Cc2ccccc2)c2ccccc21 (stereo unspecified) by its pIC50 when you get a moment. lo

For `C/C(O)=C(\C=NC(=S)c1cccnc1)C(=O)Nc1ccccc1C` , which pIC50 bin applies? lo

Which bin should I file `CCCCCCCCCCCCNC1(C)CNCCCNCCNCCCNC1` under? hi

Class for O=C(O)/C=C/CCC1SCC2NC(=O)NC21 (stereo unspecified) ? lo

Band of `c1ccc([P+](CCCCCCCC[P+](c2ccccc2)(c2ccccc2)c2ccccc2)(c2ccccc2)c2ccccc2)cc1` ? hi

Band assignment needed for c1ccc(CNC2C(c3ccccc3)=NN(c3ccccc3)C2c2ccccc2)cc1 (stereo unspecified) please. lo

Please report the category associated with CCOC(=O)C1=C(C)N(NC(=O)c2ccccc2)C2(O)CCCC12C(=O)OCC (stereo unspecified) , nothing else. lo

Which class holds NC(Cc1ccc(S(=O)(=O)O)cc1)C(=O)NC(CCCCNC(=O)NCCCCC(NC(=O)C(N)Cc1ccc(S(=O)(=O)O)cc1)C(=O)NC(Cc1ccc(S(=O)(=O)O)cc1)C(=O)O)C(=O)NC(Cc1ccc(S(=O)(=O)O)cc1)C(=O)O (stereo unspecified) ? lo

Lab log: CC(=O)OC1CCC2(C)C(CCC3C2CCC2(C)C3CCC2C(C)(C)O)C1 (stereo unspecified) — assign pIC50 category lo

Note: place this molecule into its band. Item: CCOC(=O)/C(=N\OC)C(O)C(F)(F)F (stereo unspecified) lo

Hello team, could you let me know which band the following molecule falls into: `CN(C(=O)CC(=O)CP(=O)(c1ccccc1)c1ccccc1)c1ccccc1` lo

Lab note: sort `Nc1[nH]c(=S)[nH]c(=O)c1N=O` into the matching pIC50 band. lo

# classify by pIC50 band: `CCNC(=S)N/N=C(/C)c1cccc(/C(C)=N\NC(=S)NCC)n1` hi

Which bin should I file `COc1cc(C)cc2c(-c3c(OC(C)=O)cc(OC(C)=O)c4c3C[C@H](C)N(C(C)=O)[C@H]4C)cc(-c3cc(-c4c(OC(C)=O)cc(OC(C)=O)c5c4C[C@H](C)N(C(C)=O)[C@H]5C)c4cc(C)cc(OC)c4c3O)c(O)c12` under? med

Bin this entry: `O=C(O)c1cc2c(ncc3c(=O)n(-c4ccccc4)[nH]c32)s1` lo

Place this molecule in its band: `Cn1cc([N+](=O)[O-])cc1C(=O)Nc1ccc(S(=O)(=O)O)c2cc(S(=O)(=O)O)ccc12` lo

Classify this molecule: `O=C(CCCN1CCC(Nc2ccccc2)(c2nnnn2C2CCCCC2)CC1)c1ccc(F)cc1` med

Band of `C=CCOc1cc(NC(=S)c2sccc2C)ccc1Cl` ? med

Pick a category. Item: CC(=O)NC1C(OCc2ccccc2)OC(CO)C(O)C1OC(C)C(=O)NC(C)C(=O)NC(CCC(=O)NCCCNc1c2ccccc2nc2cccc([N+](=O)[O-])c12)C(N)=O (stereo unspecified) hi

These entries and their values trace back to PubChem BioAssay AID179.
